target: Calcium/calmodulin-dependent protein kinase type II subunit delta (Homo sapiens)
value_kind: ΔTm (°C)
Your answer is read as °C, so omit the unit and give the number.

compound	target	value_kind	measurement_unit	recorded_measurement
O=C1C=C2C(=Nc3c2c2c(c4c3=NC3=C4CCC=C3)C=NC=2)CC1	Calcium/calmodulin-dependent protein kinase type II subunit delta (Homo sapiens)	ΔTm	°C	2
Cl.Cn1cc(C2=C(c3ccc4cc5n(c4c3)CCC(CN)C5)C(=O)NC2=O)c2ccccc21 (stereo not drawn)	Calcium/calmodulin-dependent protein kinase type II subunit delta (Homo sapiens)	ΔTm	°C	-0.5
O=C(O)Cc1ccc(O)c([N+](=O)[O-])c1	Calcium/calmodulin-dependent protein kinase type II subunit delta (Homo sapiens)	ΔTm	°C	0.9
Cc1[nH]c(/C=C2\C(=O)Nc3ccc(S(=O)(=O)N(C)c4cccc(Cl)c4)cc32)c(C)c1C(=O)N1CCN(C)CC1	Calcium/calmodulin-dependent protein kinase type II subunit delta (Homo sapiens)	ΔTm	°C	0.5
O=C(Nc1cccc(Nc2nccc(Nc3cccc(C(F)(F)F)c3)n2)c1)C1CC1 [ANILINOPYRIMIDINE1]	Calcium/calmodulin-dependent protein kinase type II subunit delta (Homo sapiens)	ΔTm	°C	0.6
COc1nccc(-c2c(-c3ccc(F)cc3)ncn2[C@H]2CC[C@H](O)CC2)n1	Calcium/calmodulin-dependent protein kinase type II subunit delta (Homo sapiens)	ΔTm	°C	0.4
C/C(O)=C(\C#N)C(=O)Nc1cc(Br)ccc1Br	Calcium/calmodulin-dependent protein kinase type II subunit delta (Homo sapiens)	ΔTm	°C	0.5
O=C1NC(=O)c2c1c1c3ccccc3[nH]c1n1cncc21 [ISOGRANULATIMIDE]	Calcium/calmodulin-dependent protein kinase type II subunit delta (Homo sapiens)	ΔTm	°C	1

query: Record lookup: for Calcium/calmodulin-dependent protein kinase type II subunit delta (Homo sapiens), what ΔTm belongs to COc1cc2ncnc(Nc3ccc(NC(=O)c4ccccc4)cc3)c2cc1OC [ANILINOQUINAZOLINE1] ?
result: 0.4

query: Record lookup: for Calcium/calmodulin-dependent protein kinase type II subunit delta (Homo sapiens), what ΔTm belongs to CC(C)n1cnc2c(NCc3ccccc3)nc(NCCCO)nc21 ?
result: -0.1

query: Record lookup: for Calcium/calmodulin-dependent protein kinase type II subunit delta (Homo sapiens), what ΔTm belongs to CN[C@@H]1CC2O[C@@](C)([C@@H]1OC)n1c3ccccc3c3c4c(c5c6ccccc6n2c5c31)C(=O)NC4 ?
result: 17.1

query: Record lookup: for Calcium/calmodulin-dependent protein kinase type II subunit delta (Homo sapiens), what ΔTm belongs to O=C(Nc1cccc(Nc2cc(Nc3cccc(C(F)(F)F)c3)ncn2)c1)C1CC1 ?
result: -2

query: Record lookup: for Calcium/calmodulin-dependent protein kinase type II subunit delta (Homo sapiens), what ΔTm belongs to O=C1Nc2ccc(S(=O)(=O)O)cc2/C1=C1/Nc2ccccc2/C1=N\O ?
result: 1.2

query: Record lookup: for Calcium/calmodulin-dependent protein kinase type II subunit delta (Homo sapiens), what ΔTm belongs to CCOc1cc2ncnc(Nc3cccc(Br)c3)c2cc1OCC ?
result: 0.6

query: Record lookup: for Calcium/calmodulin-dependent protein kinase type II subunit delta (Homo sapiens), what ΔTm belongs to OC[C@H]1O[C@@H](n2cnc3cc(Cl)c(Cl)cc32)[C@H](O)[C@@H]1O ?
result: -0.2

query: Record lookup: for Calcium/calmodulin-dependent protein kinase type II subunit delta (Homo sapiens), what ΔTm belongs to O=C1Nc2ccc(I)cc2/C1=C\c1cc(Br)c(O)c(Br)c1 ?
result: 0.9

query: Record lookup: for Calcium/calmodulin-dependent protein kinase type II subunit delta (Homo sapiens), what ΔTm belongs to COc1cc(/C=C/C(=O)CC(=O)/C=C/c2ccc(O)c(OC)c2)ccc1O [CURCUMIN] ?
result: 0.1

query: Record lookup: for Calcium/calmodulin-dependent protein kinase type II subunit delta (Homo sapiens), what ΔTm belongs to CN(c1cccnc1)c1cc2c(Nc3ccc(F)c(Cl)c3)c(C#N)cnc2cn1 ?
result: 2.7

Data origin: ChEMBL document CHEMBL1145498
